- TARGET_UNDER_TEST: human GLP-1 receptor (hGLP-1R) (human, UniProt P43220 24-463)
- ASSAY_DETAILS: cell-based or functional assay
Starred links: 1 amine or outer side, 2 acyl side, 3 side chain; linkers in the order of their positions; H or OH if unused. Non-standard residues stand in square brackets, D forms with d. Groups on a side chain read outwards from the residue. Primed or numbered codes have the meaning given here. No end group written: not given here. *: point of attachment. C20 diacid = O=C(O)CCCCCCCCCCCCCCCCCCC(=O)*; C18 diacid = O=C(O)CCCCCCCCCCCCCCCCC(=O)*; γGlu = O=C(O)[C@H](CCC(=O)[*:2])N[*:1]; Palmitoyl = CCCCCCCCCCCCCCCC(=O)*; αMeF = C[C@](N)(Cc1ccccc1)C(=O)O; PEG2′ = polyethylene glycol 2; PEG4′ = polyethylene glycol; AEEA = NCCOCCOCC(=O)O; Aib = CC(C)(N)C(=O)O
READOUT_NAME: hGLP-1R EC50 (pM)
All answers are understood in pM, so give the number only.

Below, each entry is followed by its recorded hGLP-1R EC50 (pM) result.
{"BINDER": "H[Aib]HGS[αMeF]TSDVSK[αMeF]LDSK([AEEA-AEEA-γGlu-C18 diacid])AAQDFVQ[Aib]IANT-NH2 [Peptide 11]", "UNITS_LABEL": "pM", "hGLP-1R EC50 (pM)": 157}
{"BINDER": "H[Aib]QGTFTSDVSK[αMeF]LDSK([γGlu-γGlu-AEEA-AEEA-γGlu-γGlu-C20 diacid])RAQDFVRWLLE[Aib]G-OH [Peptide 139]", "UNITS_LABEL": "pM", "hGLP-1R EC50 (pM)": 630}
{"BINDER": "H[Aib]QGTFTSDYSK[αMeF]LDSK([AEEA-AEEA-γGlu-C18 diacid])RAQDFVQWLV[PEG4′]-NH2 [Peptide 41]", "UNITS_LABEL": "pM", "hGLP-1R EC50 (pM)": 663}
{"BINDER": "H[Aib]QGS[αMeF]TSDVSKILDSK([PEG2′-PEG2′-γGlu-Palmitoyl])AAQD[αMeF]VQ[Aib]IINT-NH2 [Peptide 128]", "UNITS_LABEL": "pM", "hGLP-1R EC50 (pM)": 0.788}

Okay, now this binder:
Query: hGLP-1R EC50 (pM); subject: HSQGS[αMeF]TSDVSKILDSK([PEG2′-PEG2′-γGlu-Palmitoyl])AAQD[αMeF]VQ[Aib]IINT-NH2 [Peptide 121]
1.5
